# credit: the supplement of paper PMC10567573

Exercise: for every item that follows, state its recorded protein stability index.
B1: FBXO3 (parent)
chain: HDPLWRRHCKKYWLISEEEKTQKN

- Variants of: B1
- Test Details: protein stability index of a GFP-peptide fusion (GPS, HEK-293T) (PSI 1-6); higher = more stable;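 further: lentivirally expressed fusions sorted by FACS into six bins by GFP to DsRed ratio, PSI derived from sequencing read proportions per bin multiplied by bin number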
- Condition: c terminus: a fixed tail appended
Numbers only.

Sample records with protein stability index:
Ask: Fill in the blank: the reported protein stability index of HDPLWRRHCAKYWLISEEEKTQKN [K10A] is ____.
Result: 2.91

Ask: Fill in the blank: the reported protein stability index of HDPLWRRHCKKYWLISENEKTQKN [E18N] is ____.
Result: 3.15

Ask: Fill in the blank: the reported protein stability index of HDPLWRRHCKKYWLISLEEKTQKN [E17L] is ____.
Result: 2.47

Ask: Fill in the blank: the reported protein stability index of SDPLWRRHCKKYWLISEEEKTQKN [H1S] is ____.
Result: 3.62

Value sought for every listed variant: protein stability index.
1. HDPLWRRHCKKYWWISEEEKTQKN [L14W]
2. HDPLWRRHCKKYWLISEEEKTQLN [K23L]
3. HDPLWRRHCKKYWQISEEEKTQKN [L14Q]

Result:
1. 3.31
2. 2.94
3. 3.58

Value sought for every listed variant: protein stability index.
1. HDPLWRRHCKKYWLIDEEEKTQKN [S16D]
2. HDPLWRRHCKKYWLLSEEEKTQKN [I15L]
3. HDPLWRRTCKKYWLISEEEKTQKN [H8T]
4. HDPLWRRHCKKYWLISDEEKTQKN [E17D]

Result:
[3.84, 3.44, 2.79, 3.48]

Value sought for every listed variant: protein stability index.
1. HDPLWRRHCKKYWLISEHEKTQKN [E18H]
2. HDPLWRRHCKKYWLISEEEKTQWN [K23W]
3. HDPLWRRHCKKGWLISEEEKTQKN [Y12G]
4. HWPLWRRHCKKYWLISEEEKTQKN [D2W]
5. HDPLWRRHCKKYWLISEMEKTQKN [E18M]
6. HPPLWRRHCKKYWLISEEEKTQKN [D2P]

Result:
1. 3.3
2. 2.7
3. 3.74
4. 1.97
5. 2.28
6. 3.13

Value sought for every listed variant: protein stability index.
1. HDPLWRRECKKYWLISEEEKTQKN [H8E]
2. HDPLWRRHCKKMWLISEEEKTQKN [Y12M]
3. HDPLWRRHCKKYPLISEEEKTQKN [W13P]
4. HDPLWRRHCKKYYLISEEEKTQKN [W13Y]
5. HDPLWRRHCKKYWLISNEEKTQKN [E17N]
6. HMPLWRRHCKKYWLISEEEKTQKN [D2M]

Result:
3.63
2.98
4.21
3.19
2.98
2.63
